Cited source for all entries: PubChem BioAssay (NCI)

- System: TK-10 renal
- ASSAY_NOTES: NCI-60 one-dose screen, 48 h (100 = growth as untreated, 0 = no growth, -100 = all killed)
- TEST_CONTEXT: 10 µM unless noted
About 83,000 compounds went through this panel and 20% of them were active in at least one assay; those are over-represented in the sample as a whole.
Reported growth is given for each of the following compounds.
Number in %, nothing else.

# example entries with known answers
>>> observed("Clc1ccccc1-c1cnn2cc(-c3ccccc3)cnc12")
89.1
>>> observed("O=C(NC1CC(F)C1)c1cc2cccnc2n1-c1ccc(Cl)c(Cl)c1 (configuration not stated)")
90.2
>>> observed("CSC1=Nc2c(c(C)c(-c3ccccc3)n2CCCC(=O)O)C2=NC(=O)C[C@H](C)N12")
118
>>> observed("CC1(C)CC[C@]2(C(=O)N[C@H](CO)Cc3ccccc3)CC[C@]3(C)C(=CC[C@@H]4[C@@]5(C)CCCNC(C)(C)[C@@H]5CC[C@]43C)[C@@H]2C1")
95.5
>>> observed("COc1ccc(N2CCN(C(=O)c3sc4nc(C)c(Br)c(C)c4c3N)CC2)cc1")
115
>>> observed("CCOC(=O)c1c(C)nc2c(c1N)/C(=C/c1ccc(OC)cc1)C(=O)N2Cc1ccccc1")
97.2

Record request: growth value, item C=C(C)[C@@H]1CC[C@]2(C)[C@H](CC=C3[C@@H]4CC(C)(C)CC[C@]4(CO)CC[C@]32C)[C@@]1(C)CCCN
-45.8

How about this compound: Cc1c2ccncc2c(C)c2c1c1cc(CO)ccc1n2C
-21.4

How about this compound: CC1=C2[C@@H](CC1)[C@]1(C)O[C@@](c3ccccc3)(C[C@H]1OC(=O)CO)[C@H]2OC(=O)/C=C/c1ccccc1
111

How about this compound: COc1ccc(/C=C/C(c2cc(OC)c(OC)c(OC)c2)n2cncn2)cc1 (configuration not stated)
48.5

How about this compound: O=C(c1c[nH]c2ccccc12)c1n[nH]c(=S)n1-c1cccc(Br)c1
106

How about this compound: FC(F)(F)Oc1cccc(-c2cnc3ccc(-c4ccncc4)nn23)c1
17.3

###

Reported growth is given for each of the following compounds.
- Test system: SK-OV-3 ovarian
- ASSAY_NOTES: NCI-60 one-dose screen, 48 h (100 = growth as untreated, 0 = no growth, -100 = all killed)
- TEST_CONTEXT: 10 µM unless noted
This is part of a sample that, as a whole, favours compounds with a hit. Of some 83,000 tested, about 20% had one in any assay.
Number in %, nothing else.

>>> observed("Clc1ccccc1-c1cnn2cc(-c3ccccc3)cnc12")
83.9
>>> observed("O=C(Nc1ccccc1O)c1ccc(CNC(=O)c2ccsc2Nc2ccnc(C(F)(F)F)c2)cc1")
49.1
>>> observed("COc1ccc(C(=O)Cn2c(C(=O)c3ccc(Cl)cc3)nc3ccccc32)cc1")
98.8
>>> observed("O=C1c2ccccc2C(=O)c2c1c(C(=O)NCc1ccccc1)c1ccccn21")
102

Record request: growth value, item CCOC(=O)C#Cc1c(C(=O)OCC)nnn1Cc1ccc(C(F)(F)F)cc1
99.7

###

- System: SNB-19 CNS
- ASSAY_NOTES: NCI-60 one-dose screen, 48 h (100 = growth as untreated, 0 = no growth, -100 = all killed)
- TEST_CONTEXT: 10 µM unless noted
Compounds without any hit were thinned out: in the full panel of roughly 83,000, 20% have a hit.
MEASURED_PARAMETER: growth (%)
Number in %, nothing else.

>>> observed("CC1(C)N=C(N)N=C(N)N1c1ccc(CCCCc2ccccc2)c(Cl)c1")
21.4
>>> observed("COc1ccc(/C=C2\\CN(C(=O)C(Cl)Cl)C/C(=C\\c3ccc(OC)cc3)C2=O)cc1")
-10.9
>>> observed("COC(=O)c1cc(Br)ccc1O")
108
>>> observed("COC(=O)c1c2c(c(C)[n+]([O-])c1C)C(=O)C(NCc1ccc(OC)cc1)=CC2=O")
5.27

Let us move to another entry and its growth.
Record request: growth value, item CCNC(=O)Oc1ccc(/C(=C(/C)Cc2ccc(OC)cc2)c2ccc(OCCN3CCCCC3)cc2)cc1
76
